Measured SI values are reported for all entries that follow.
Test system: ATH-8 cell line
Assay Details: Selectivity index expressed as ratio of compound concentration required to reduce the growth of normal uninfected ATH8 cells by 50% to the compound concentration (MIC)
Type: functional, Homo sapiens

# Compound, SI
measured = [
    ("Cc1ccc(C(=O)Nc2ccc(S(=O)(=O)O)c3cc(S(=O)(=O)O)cc(S(=O)(=O)O)c23)cc1NC(=O)c1cccc(NC(=O)Nc2cccc(C(=O)Nc3cc(C(=O)Nc4ccc(S(=O)(=O)O)c5cc(S(=O)(=O)O)cc(S(=O)(=O)O)c45)ccc3C)c2)c1", 5),
    ("Cc1cn([C@H]2C[C@H](N=[N+]=[N-])[C@@H](CO)O2)c(=O)[nH]c1=O", ">50"),
    ("NC(=O)c1ncn([C@@H]2O[C@H](CO)[C@@H](O)[C@H]2O)n1", "<0.3"),
]
